Reference source for all entries: patent US20200369765A1

Molecular target: T1, Human Siglec-9 mutant M7 (human, UniProt Q9Y336 18-463)
T1 construct: Expressed on HEK293T cells; also called Mutant 7
T1 sequence (Q9Y336 other isoform, or with tags, fused parts or gaps mutant): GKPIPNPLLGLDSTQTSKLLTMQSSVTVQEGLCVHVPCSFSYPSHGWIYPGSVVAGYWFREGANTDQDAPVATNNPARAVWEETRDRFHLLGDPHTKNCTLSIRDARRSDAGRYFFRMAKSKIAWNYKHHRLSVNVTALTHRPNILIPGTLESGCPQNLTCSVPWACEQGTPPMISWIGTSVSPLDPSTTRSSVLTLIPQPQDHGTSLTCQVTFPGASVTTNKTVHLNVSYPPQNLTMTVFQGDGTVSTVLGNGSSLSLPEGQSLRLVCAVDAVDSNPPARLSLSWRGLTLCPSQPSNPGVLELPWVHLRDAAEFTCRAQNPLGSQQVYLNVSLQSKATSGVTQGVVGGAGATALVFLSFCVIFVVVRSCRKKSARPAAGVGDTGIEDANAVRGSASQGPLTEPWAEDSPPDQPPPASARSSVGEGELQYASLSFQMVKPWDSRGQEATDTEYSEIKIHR
Assay: flow cytometry, HEK293T transfectants
assay metric: binding result

| binder | measurement |
| --- | --- |
| mAbF (antibody, human IgG1, V domains shown) VH: QVQLQQSGPEVVRPGVSVKISCKGSGYTFTDYSMHWVKQSHAKSLEWIGVISTYNGNTNYNQKFKGKATMTVDKSSSTAYMELARLTSEDSAIYYCARRGYYGSSSWFGYWGQGTLVTVSA VL: DIVMTQSQKFMSTSVGDRVSVTCKASQNVGTDVAWYQQKPGQSPEALIYSASYRYSGVPDRFTGSGSGADFTLTISNVQSEDLAEYFCQQYNSFPYTFGGGTKLEIK | binds |
